# credit: patent US20150353515A1

Tested on: RAW 264.7 macrophage cell line (LPS-stimulated NO production)
test_summary: Nitric oxide inhibition: nitrite quantification with Griess reagent in LPS-stimulated macrophage cells
Assay type: cell-based, mouse
reported_conditions: Mus musculus, RAW264.7; nitrite in supernatant of LPS (100 ng/ml)-stimulated RAW 264.7 cells, 24 h; lowest tested concentration 25 μM
quantity: pIC50
Convention used: pIC50 is expressed as -log10 of the molar concentration.

# input Could you share which pIC50 value was measured for Oc1ccc(/C=C/c2cc(O)cc(O)c2)cc1 [Resveratrol (1), 3,5,4′-trihydroxy-trans-stilbene, reference compound] ?
# output 4.40
